# System: OVCAR-8 ovarian
# PROCEDURE_DETAILS: NCI tumour cell line growth inhibition, 48 h
Parameter GI50: see the listing below.

The examples below pair each entry with its known result.
chemical_smiles=O=C(Nc1ccc(-n2ccc3c(NC(=O)c4ccccc4)nccc32)cc1)c1ccc(Cl)c(C(F)(F)F)c1 measured_metric=GI50 result="528 nM"
chemical_smiles=O=C1NC(=NCCc2cccc(F)c2)S/C1=C\c1ccc2ncccc2c1 measured_metric=GI50 result="12800 nM"
chemical_smiles=CC(=O)[CH-]C(=O)c1ccccc1.CC(=O)[CH-]C(=O)c1ccccc1.CN(C)c1ccc([O-])cc1.CN(C)c1ccc([O-])cc1.Cl.[Ti+4] measured_metric=GI50 result="21900 nM"

For the molecule shown here, `O=C(Nc1ccc(F)cc1)Nc1ccc(Cl)c([N+](=O)[O-])c1` , give the reported GI50.
2980 nM

What do you have for `COc1ccc2c(c1)sc1nc(-c3ccccc3)c(-c3cccc4ccccc34)n12` ?
771 nM
